Value source: the supplement of paper PMC7125110

B1: glmS ribozyme (parent)
chain: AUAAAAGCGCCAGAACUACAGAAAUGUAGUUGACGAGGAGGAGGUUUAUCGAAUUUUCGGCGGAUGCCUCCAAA

Variants of: B1
experimental-details: self-cleavage kobs at 640 uM GlcN6P; higher = faster cleavage; RNA array
measurement-conditions: with glucosamine-6-phosphate
This sample holds only a part of the variants without activity.
property-measured: self-cleavage kobs at 640 uM GlcN6P

Problem: Item G35C C50A G51U A52C has what recorded self-cleavage kobs at 640 uM GlcN6P?
Solution: < 1e-05 s⁻¹

Problem: Item C16G A42G A53G C67G has what recorded self-cleavage kobs at 640 uM GlcN6P?
Solution: 0.000268 s⁻¹

Problem: Item C50U A64C C67A has what recorded self-cleavage kobs at 640 uM GlcN6P?
Solution: < 1e-05 s⁻¹

Problem: Item C8G G43C has what recorded self-cleavage kobs at 640 uM GlcN6P?
Solution: < 1e-05 s⁻¹

Problem: Item G59U G62A has what recorded self-cleavage kobs at 640 uM GlcN6P?
Solution: < 1e-05 s⁻¹

Problem: Item A6G U31G G37U has what recorded self-cleavage kobs at 640 uM GlcN6P?
Solution: < 1e-05 s⁻¹

Problem: Item C50A C61U has what recorded self-cleavage kobs at 640 uM GlcN6P?
Solution: < 1e-05 s⁻¹

Problem: Item A52U A53U has what recorded self-cleavage kobs at 640 uM GlcN6P?
Solution: 2.65e-05 s⁻¹

Problem: Item U30A C34U C68G has what recorded self-cleavage kobs at 640 uM GlcN6P?
Solution: 0.000629 s⁻¹

Problem: Item G60A C68G has what recorded self-cleavage kobs at 640 uM GlcN6P?
Solution: 7.21e-05 s⁻¹

Problem: Item A53U G62C has what recorded self-cleavage kobs at 640 uM GlcN6P?
Solution: < 1e-05 s⁻¹
